Values from BindingDB's records for doi:10.1021/jm970459c

Below, each entry is listed alongside its reported pIC50.
Molecular target: Sigma receptor (Cavia porcellus)
Test: Binding assay for the sigma receptor sites is performed by utilizing [3H]N,N-di-o-tolylguanidine ([3H]DTG) and guinea pig brain membrane suspensions
pIC50: −log10 of the molar value.
assay-metric: pIC50

                             chemical_string                   target_of_assay  measurement
 0   CCc1cccc(N(C)C(N)=Nc2cc(C)cc(CC)c2Cl)c1  Sigma receptor (Cavia porcellus)         7.35
 1         CCc1cccc(NC(N)=Nc2cc(Cl)ccc2Cl)c1  Sigma receptor (Cavia porcellus)         7.92
 2      CCc1cccc(N(C)C(N)=Nc2cccc(Cl)c2Cl)c1  Sigma receptor (Cavia porcellus)         7.01
 3  CCc1cccc(N(C)C(N)=Nc2cc(Br)cc(OC(F)(F)F)c2Br)c1  Sigma receptor (Cavia porcellus)         6.95
 4  CCc1cccc(N(C)C(N)=Nc2cc(Br)cc(S(C)(=O)=O)c2Br)c1  Sigma receptor (Cavia porcellus)         5.47
 5         CCc1cccc(NC(N)=Nc2cccc(Cl)c2Cl)c1  Sigma receptor (Cavia porcellus)         7.89
 6        CCc1cccc(N(C)C(N)=Nc2ccc(Cl)cc2)c1  Sigma receptor (Cavia porcellus)         7.34
 7  CCc1cccc(N(C)C(N)=Nc2cc(Cl)cc(C(F)(F)F)c2Cl)c1  Sigma receptor (Cavia porcellus)         6.96
 8        CCc1cccc(N(C)C(N)=Nc2cccc(SC)c2)c1  Sigma receptor (Cavia porcellus)         6.79
 9  CCc1cccc(N(C)C(N)=Nc2cc(CC)cc(CC)c2Br)c1  Sigma receptor (Cavia porcellus)         6.69
10   CCc1cccc(N(C)C(N)=Nc2cc(CC)cc(CC)c2F)c1  Sigma receptor (Cavia porcellus)         6.95
